- System: HEK-293T
- assayOverview: Multiplex assay against HEK293T
- Format: toxicity, cell-based
- experimentalContext: human, 12 h, 1 µM, compound concentration 1 uM, replicate 2
assayReadout: Population Normal (%)
Numeric answer only, unit % assumed.

// worked examples, Population Normal (%) included
{"columns": ["compound", "readoutUnits", "Population Normal (%)"],
 "data": [
  ["COc1ccc(-c2ccc3ncc4c(c3c2)n(-c2ccc(N3CCNCC3)c(C(F)(F)F)c2)c(=O)n4C)cn1.O=C(O)/C=C\\C(=O)O", "%", 89],
  ["CCc1ccc(OCc2ccccc2C(=O)Nc2ccc3nc(C)cc(N)c3c2)cc1.Cl", "%", 85],
  ["Cc1ccc(C)c(Oc2ccncc2C(=O)N2CCN(C3CC3)c3ccccc32)c1", "%", 96]
]}

The record that follows has no Population Normal (%) shown yet.
Which measured Population Normal (%) belongs to CC(C)Oc1ccccc1C(=O)Nc1ccccc1C(=O)Nc1cccc(S(=O)(=O)C(F)(F)F)c1 , tested on HEK-293T?
93
